// data source = PubChem BioAssay (NCATS)

# Measurement protocol: qHTS Screen of the MIPE 4.0 Collection Against Ewings Sarcoma (RDES) (AID 1259252); note: nearly all actives have a fitted effect of over 35% in size
# Experimental parameters: RD-ES Ewing sarcoma viability, CellTiter-Glo, 48 h; series mostly up to 45.8 µM
Results filed as inconclusive are left out. The source made the active and inactive calls. Calls come from the whole dose curve; as a rule, active = well fitted inhibition curve with a large enough effect; inconclusive = small, poorly fitted or top-dose-only effect; inactive = no such curve, though single readings can be large or run the other way.
Possible outcomes: class 1 for active, class 0 for inactive

Smiles str | Qualitative label
N#CCNC(=O)c1ccc(-c2ccnc(Nc3ccc(N4CCOCC4)cc3)n2)cc1 | class 1
CC(=O)SC[C@@H](C)C(=O)N1CCC[C@H]1C(=O)N[C@@H](Cc1ccccc1)C(=O)O | class 0
CC(C)c1cc(-c2n[nH]c(=O)n2-c2ccc3c(ccn3C)c2)c(O)cc1O | class 1
